Entry source: paper PMC9482650

Biological target: T1, DFNB31_3, Q9P202
T1 sequence (Q9P202 811-907, limits assumed, looked up): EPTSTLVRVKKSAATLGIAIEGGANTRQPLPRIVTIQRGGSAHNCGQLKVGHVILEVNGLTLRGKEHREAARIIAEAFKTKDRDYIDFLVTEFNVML
Experiment: holdup assay
Parameters: key: below the threshold = too weak to quantify, mostly under pKd 3.1 to 4
Details: plain residues with an end cap or a label only (N-terminal biotin on a linker: ado-ado)
measured_attribute: pKd
Output spec: single numeric token, no unit.

PPGKHLVTEV [KCNA7, Q96RP8] :: 4.01
DGVNEKVSCV [HTR2A, P28223] :: 3.88
AEASVACSLC [PTGIR, P43119] :: 3.75

Kindly review the next binder as well.
State its pKd: STKRKLASAV [NCF1, P14598]
3.85
